Data origin: ChEMBL document CHEMBL1147917

- Tested on: Rattus norvegicus
- METHOD_SUMMARY: Toxicity in rat assessed as incidence of ulcer at 400 mg/kg, po
- Type: organism-based
- Parameters: dose 400 mg/kg, route oral
- CONDITIONS: in vivo
PARAMETER: Activity (%)

                             chemical_smiles  u  experimental_value
 0  Cc1ccc(C(=O)Oc2ccc(F)cc2C(=O)c2ccc(C)cc2)cc1  %                  45
 1  Cc1ccc(OC(=O)c2ccccc2C)c(C(=O)c2ccccc2C)c1  %                  40
 2  O=C(Oc1ccc(Cl)cc1C(=O)c1ccc(Cl)cc1)c1ccc(Cl)cc1  %                  15
 3                     CC(=O)Oc1ccccc1C(=O)O  %                  85
 4  O=C(Oc1ccc(Cl)cc1C(=O)c1cccc(Cl)c1Cl)c1ccccc1  %                  40
 5  Cc1ccc(OC(=O)c2ccccc2)c(C(=O)c2ccc(Cl)cc2)c1  %                  80
 6  Cc1ccc(OC(=O)c2ccccc2)c(C(=O)c2ccccc2)c1  %                  40
 7  Cc1ccc(C(=O)c2cc(C)ccc2OC(=O)c2ccc(Cl)cc2)cc1  %                  18
 8  Cc1ccc(C(=O)Oc2ccc(C)cc2C(=O)c2ccc(C)cc2)cc1  %                  20
 9     CCCCC1C(=O)N(c2ccccc2)N(c2ccccc2)C1=O  %                  90
10  Cc1ccc(C(=O)c2cc(F)ccc2OC(=O)c2ccc(Cl)cc2)cc1  %                  25
11  O=C(Oc1ccc(Br)cc1C(=O)c1ccc(Cl)cc1)c1ccc(Cl)cc1  %                  25
